The measurements presented in this section are drawn from PubChem BioAssay AID248.

I'd be grateful if you could share measured T/C for these entries.
# System: L1210 leukemia ip in BDF1 mice, survival T/C
# MEASUREMENT_PROTOCOL: NCI In Vivo Anticancer Drug Screen. Data for tumor model L1210 Leukemia (intraperitoneal) in B6D2F1 (BDF1) mice
# SETUP_CONDITIONS: endpoint: mean survival time; dose: 200.0 mg/kg/injection; schedule: Q04DX002 (ip); vehicle: Klucel (hydroxypropylcellulose) (HPC); higher = longer survival
Inconclusive results and toxic doses are left out.

Fill in: T/C of `O=C(O)COc1ccc2ccccc2c1Cl` is ___ 89 % of control

Fill in: T/C of `Cc1ccc(S/C(=N\O)C(C)C)cc1` is ___ 92 % of control

Fill in: T/C of `Cc1cc(C)c2c(c1)C/C2=N/N=C1/Cc2cc(C)cc(C)c21` is ___ 92 % of control

Fill in: T/C of `CN(Cc1ccccc1)C(=O)C(c1ccccc1)c1ccccc1` is ___ 86 % of control

Fill in: T/C of NC(=O)CNC(c1ccccc1)C(O)c1ccccc1 (stereo unspecified) is ___ 102 % of control

Fill in: T/C of `O=C/C=C/c1cc([N+](=O)[O-])ccc1Cl` is ___ 96 % of control

Fill in: T/C of `CCOC(=O)Nc1c(O)cccc1N1CCOCC1` is ___ 101 % of control

Fill in: T/C of `Cc1ccnc(NC(=O)Nc2ccccc2Cl)c1` is ___ 93 % of control

Fill in: T/C of `Nc1ccc2c(c1)oc1ccccc12` is ___ 103 % of control

Fill in: T/C of [N-]=[N+]=NC(c1ccccc1)S(=O)c1ccccc1 (stereo unspecified) is ___ 108 % of control

Fill in: T/C of `O=C(NCc1ccncc1)C(c1ccccc1)c1ccccc1` is ___ 92 % of control

Fill in: T/C of O=C1NC2Cc3ccccc3CC12 (stereo unspecified) is ___ 100 % of control

Fill in: T/C of O=C(O)C1CCCCC1C(=O)Nc1ccc(Br)cc1 (stereo unspecified) is ___ 100 % of control

Fill in: T/C of `O=Cc1c(O)ccc2ccccc12` is ___ 93 % of control

Fill in: T/C of `O=c1c2c(=O)c3ccccc3c(=O)c=2c(=O)c2ccccc12` is ___ 89 % of control

Fill in: T/C of `N#C/C(N)=C(\C#N)N=C1CCCCC1=O` is ___ 91 % of control

Fill in: T/C of `CCN(CC#CCOc1ccc(Cl)cc1Cl)c1ccccc1` is ___ 98 % of control

Fill in: T/C of O=C(O)C1CC(Br)C(Br)CC1C(=O)Nc1ccc(Cl)c(Cl)c1 (stereo unspecified) is ___ 121 % of control

Fill in: T/C of CC1CCC2(OC1)OC1CC3C4CCC5CC(=O)CCC5(C)C4CCC3(C)C1C2C (stereo unspecified) is ___ 105 % of control

Fill in: T/C of `O=C(Cc1ccccc1)Nc1ccc(Nc2ccccc2)cc1` is ___ 100 % of control

Fill in: T/C of `Cc1ccc(S(=O)(=O)N/N=C/C=C/C=N/NS(=O)(=O)c2ccc(C)cc2)cc1` is ___ 103 % of control

Fill in: T/C of `COc1ccc(C(=O)/C=C\c2ccc(Cl)c(Cl)c2)cc1` is ___ 97 % of control

Fill in: T/C of C1CCC2[N-]CC3CCCCC3[N-]CC3CCCCC3[N-]CC3CCCCC3[N-]CC2C1.CO.[Co+3] (stereo unspecified) is ___ 103 % of control

Fill in: T/C of `C(=C\CSc1ccccc1)/CSc1ccccc1` is ___ 94 % of control

Fill in: T/C of `COc1ccc(OC)c(NC(=O)Oc2ccc(Br)cc2Br)c1` is ___ 104 % of control

Fill in: T/C of `O=C1Cc2ccccc2N1C(=O)c1ccccc1` is ___ 90 % of control
